- experiment_description: chemical genetic growth profiling, strain panel (AID 1159580);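 also: tested at 20 µM; growth read once vehicle control cultures reached saturation at 30 °C; 1 = growth at the plate median or of vehicle wells; lower values mean less growth of the strain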
- measurement_conditions: S. cerevisiae deletion strains, growth OD, locus YOR265W, strain rbl2, active compounds read low
Out of some 5,500 compounds screened, about 2,000 (36%) were called active. Not shown: some 18% with an inconclusive outcome. The list shows a part of the results.

{"compound": "CC(N)CCCC(C)(C)O (stereo unspecified)", "normalized growth": 0.982}
{"compound": "CC1(C)OC(=O)NC1=O", "normalized growth": 1.01}
{"compound": "O=C1C=CC(=C(c2ccc(O)cc2)c2ccc(O)cc2)C=C1", "normalized growth": 0.978}
{"compound": "COc1ccc2c3c1O[C@H]1C[C@@H](O)C=C[C@@]31CCN(C)C2", "normalized growth": 1}
{"compound": "CN(C)CC/C=C1\\c2ccccc2Sc2ccc(Cl)cc21", "normalized growth": 0.974}
{"compound": "CC(C)c1c(C(=O)c2ccccc2)c(-c2ccccc2)c(-c2ccc(F)cc2)n1CC[C@@H](O)C[C@@H](O)CC(=O)O", "normalized growth": 0.95}
